Taken from ChEMBL document CHEMBL4689842.

System: U2OS
Assay: Multiplex assay against U2OS
Format: toxicity, cell-based
Conditions: human, 12 h, 1 µM, compound concentration 1 uM, replicate 1
Please use Fulfilled for Population Tubulin-Different-Phenotype (%) under 10% and Not fulfilled for everything else, ties included.

A selection of reference data follows.
* N#Cc1cnc(Nc2cc(NC[C@H]3CNCCO3)c(C(F)(F)F)cn2)cn1 | Not fulfilled
* CCc1cc2c(cc1CC)CC(NC[C@H](O)c1ccc(O)c3[nH]c(=O)ccc13)C2 | Not fulfilled
* Cl.Cl.NC1(c2ccc(-c3nc4ccn5c(=O)[nH]nc5c4cc3-c3ccccc3)cc2)CCC1 | Not fulfilled
* CCn1c(-c2nonc2N)nc2cnc(Oc3cccc(NC(=O)c4ccc(OCCN5CCOCC5)cc4)c3)cc21 [GSK-269962A] | Not fulfilled

Task: # check: Population Tubulin-Different-Phenotype (%) < 10% for `CN(C)CCOc1ccc(-c2nc(-c3ccncc3)c(-c3ccc4c(c3)CC/C4=N\O)[nH]2)cc1`
Output: Not fulfilled

Task: # check: Population Tubulin-Different-Phenotype (%) < 10% for `Nc1nc2c(c(N3CCNCC3)n1)CCC1=C2[C@@H]2CCCC[C@@H]2O1`
Output: Fulfilled

Task: # check: Population Tubulin-Different-Phenotype (%) < 10% for `CC(C)N1CCC(C)(C)c2cc(C#Cc3ccc(C(=O)O)cc3)ccc21`
Output: Not fulfilled

Task: # check: Population Tubulin-Different-Phenotype (%) < 10% for `CCOc1cc(N2CCC(O)CC2)ccc1Nc1ncc2c(n1)N(C1CCCC1)CCC(=O)N2C`
Output: Not fulfilled

Task: # check: Population Tubulin-Different-Phenotype (%) < 10% for `CCOc1cc2ncc(C#N)c(Nc3ccc(OCc4cccc(F)c4)c(Cl)c3)c2cc1NC(=O)/C=C/CN(C)C`
Output: Not fulfilled

Task: # check: Population Tubulin-Different-Phenotype (%) < 10% for `COc1cc2c(Nc3ccc(NC(=O)c4ccccc4)cc3)ncnc2cc1OCCCN1CCOCC1`
Output: Not fulfilled

Task: # check: Population Tubulin-Different-Phenotype (%) < 10% for `Cc1cc2c(cc1N1C(=O)c3cccc4c(CCCO)ccc(c34)C1=O)n(C)c(=O)n2C`
Output: Fulfilled

Task: # check: Population Tubulin-Different-Phenotype (%) < 10% for `CC(C)(C)c1cnc(CSc2cnc(NC(=O)C3CCNCC3)s2)o1`
Output: Not fulfilled

Task: # check: Population Tubulin-Different-Phenotype (%) < 10% for `CCCn1c(=O)c2[nH]c(C34CC5CC(CC3C5)C4)nc2n(CCC)c1=O`
Output: Not fulfilled

Task: # check: Population Tubulin-Different-Phenotype (%) < 10% for Cc1nc(Cc2cccc(C(F)(F)F)c2)sc1-c1ccc(C(N)=O)nc1 [TP-024n]
Output: Fulfilled

Task: # check: Population Tubulin-Different-Phenotype (%) < 10% for CC(C)Oc1ccc(C(=O)N[C@H](CNC(=O)CN(C)C)Cc2ccc(-c3cn4cccc([C@H](C)O)c4n3)cc2)cc1Cl [GSK-923295A]
Output: Not fulfilled
